- Tested on: Rattus norvegicus
- experiment.description: Lactate dehydrogenase in Bile Fistula rats after iv coinfusion of TCDCA and compound.
- Assay type: ADME, organism-based
- applied.conditions: in vivo
// classify: if ([LDH]max < 70 UI l-1) rule met else rule not met

Study these solved cases before continuing.
{"columns": ["compound", "label"],
 "data": [
  ["CC(CCC(=O)NCC(=O)O)C1CC[C@H]2[C@@H]3[C@H](O)CC4C[C@H](O)CCC4(C)[C@H]3CCC12C (stereo partly drawn)", "rule met"],
  ["C[C@H](CCC(=O)O)[C@H]1CC[C@H]2[C@@H]3[C@@H](O)C[C@@H]4C[C@H](O)CC[C@]4(C)[C@H]3CC[C@]12C", "rule not met"],
  ["CC(CCC(=O)N1CCC[C@@H]1C(=O)O)C1CC[C@H]2[C@@H]3[C@H](O)[C@H](O)C4C[C@H](O)CC[C@]4(C)[C@H]3CC[C@]12C (stereo partly drawn)", "rule met"],
  ["CO[C@H]1C[C@H](C(=O)O)N(C(=O)CCC(C)C2CC[C@H]3[C@@H]4[C@@H](O)CC5C[C@H](O)CC[C@]5(C)[C@H]4CC[C@]23C)C1 (stereo partly drawn)", "rule met"],
  ["CC(CCC(=O)N1C[C@@H](O)C[C@@H]1C(=O)O)C1CC[C@H]2[C@@H]3[C@@H](O)CC4C[C@H](O)CC[C@]4(C)[C@H]3CC[C@]12C (stereo partly drawn)", "rule met"],
  ["CC(CCC(=O)N1CCC[C@@H]1C(=O)O)C1CC[C@H]2[C@@H]3C[C@H](O)C4C[C@H](O)CC[C@]4(C)[C@H]3CC[C@]12C (stereo partly drawn)", "rule not met"]
]}

Lab note: [LDH]max threshold 70 UI l-1. Does this compound come in strictly under it? CC(CCC(=O)N1CCC[C@@H]1C(=O)O)C1CC[C@H]2[C@@H]3[C@@H](O)CC4C[C@H](O)CC[C@]4(C)[C@H]3CC[C@]12C (stereo partly drawn)
rule met

====

- experiment.description: Critical micellar pH was determined
Let's look at some compounds and their measured CMpH.
Response field accepts a number only; no unit should be typed.

Here's what some known entries look like.
{"columns": ["compound", "CMpH"],
 "data": [
  ["CC(CCC(=O)N1CCC[C@H]1C(=O)O)C1CC[C@H]2[C@@H]3[C@@H](O)CC4C[C@H](O)CC[C@]4(C)[C@H]3CC[C@]12C (stereo partly drawn)", 6],
  ["CC(CCC(=O)N1C[C@@H](O)C[C@@H]1C(=O)O)C1CC[C@H]2[C@@H]3[C@@H](O)CC4C[C@H](O)CC[C@]4(C)[C@H]3CC[C@]12C (stereo partly drawn)", 4.7]
]}

What measured CMpH goes with CC(CCC(=O)N1CCC[C@@H]1C(=O)O)C1CC[C@H]2[C@@H]3[C@@H](O)CC4C[C@H](O)CC[C@]4(C)[C@H]3CC[C@]12C (stereo partly drawn) ?
6

Please answer likewise for C[C@H](CCC(=O)O)[C@H]1CC[C@H]2[C@@H]3[C@@H](O)C[C@@H]4C[C@H](O)CC[C@]4(C)[C@H]3CC[C@]12C [URSODIOL]
8.4

Please answer likewise for CC(CCC(=O)N1CCC[C@@H]1C(=O)O)C1CC[C@H]2[C@@H]3[C@H](O)[C@H](O)C4C[C@H](O)CC[C@]4(C)[C@H]3CC[C@]12C (stereo partly drawn)
6.6

Please answer likewise for CC(CCC(=O)N1CCC[C@@H]1C(=O)O)C1CC[C@H]2[C@@H]3C[C@H](O)C4C[C@H](O)CC[C@]4(C)[C@H]3CC[C@]12C (stereo partly drawn)
6.6

Please answer likewise for CC(CCC(=O)NCC(=O)O)C1CC[C@H]2[C@@H]3[C@H](O)CC4C[C@H](O)CCC4(C)[C@H]3CCC12C (stereo partly drawn)
7.1

Please answer likewise for CO[C@H]1C[C@H](C(=O)O)N(C(=O)CCC(C)C2CC[C@H]3[C@@H]4[C@@H](O)CC5C[C@H](O)CC[C@]5(C)[C@H]4CC[C@]23C)C1 (stereo partly drawn)
6.5
